Origin of measurements: patent US12522576B2

# TEST_METHOD_NOTES: Visual solubility of Form B
# Format: physicochemical
# ASSAY_SETUP: organic solvent or mixture, thermodynamic from solid; solvent DMSO; 50° C.; read-out: Visual Solubility at 50° C.
EXPERIMENTAL_READOUT: solubility

Using the record for CCCCCc1cc(OC(=O)c2ccc3ccccc3c2)c2c(c1)OC(C)(C)[C@@H]1CCC(C)=C[C@@H]21 [Form B] , report its solubility.
25 to 50 mg/mL

###

# TEST_METHOD_NOTES: D9 solubility in the liquors at isolation temperature
# Assay type: physicochemical
# ASSAY_SETUP: crystallisation liquors over suspended solid, 25 °C, organic solvent or mixture, thermodynamic from solid, batch 5; p-Xylene/MeOH (1:9); seed E/G; heat T 50; isolation T 25; 19.5 mL/g; SP 3
EXPERIMENTAL_READOUT: solubility (µg/mL)
Quick reminder: number only, in µg/mL, skip the unit.

What value of solubility has been reported for the following molecule? CCCCCc1cc(OC(=O)c2ccc3ccccc3c2)c2c(c1)OC(C)(C)[C@@H]1CCC(C)=C[C@@H]21 [Form G]
7500

###

# TEST_METHOD_NOTES: Gravimetric solubility
# Format: physicochemical
# ASSAY_SETUP: 20 °C, organic solvent or mixture, thermodynamic from solid; solvent DMF; RT; Batch 8; read-out: Gravimetric Solubility at RT
EXPERIMENTAL_READOUT: solubility
Value and unit, in that order.

Returns the measured solubility for the input compound. Input: CCCCCc1cc(OC(=O)c2ccc3ccccc3c2)c2c(c1)OC(C)(C)[C@@H]1CCC(C)=C[C@@H]21 [DMF solvate of Group D]
95 mg/mL

###

# TEST_METHOD_NOTES: D9 solubility in the liquors at isolation temperature
# Type: physicochemical
# ASSAY_SETUP: crystallisation liquors over suspended solid, 25 °C, organic solvent or mixture, thermodynamic from solid, batch 5, MeCN/MIBK (8:2), seed D, heat T 50, isolation T 25, SP 5, 20.0 mL/g
# Description: At the end of each experiment, suspensions were equilibrated at the isolation temperature (25 or 5° C.) for at least 18 hours and the solids and liquors separated by centrifugation at the isolation temperature. The Exo/D9/D8 ratio (Exo-D9-THC-naphthoylester impurity/D9-THC-naphthoylester/D8-THC-naphthoylester) was determined in both the isolated solids and the liquors, from which the % Exo-depletion in the isolated solids was calculated. […]
EXPERIMENTAL_READOUT: solubility

GET /values?readout=solubility&item= CCCCCc1cc(OC(=O)c2ccc3ccccc3c2)c2c(c1)OC(C)(C)[C@@H]1CCC(C)=C[C@@H]21 [Form C]
22.3 mg/mL

###

# TEST_METHOD_NOTES: D9 solubility in the liquors at isolation temperature
# Type: physicochemical
# ASSAY_SETUP: liquors of the equilibrated crystallisation suspension, 25 °C, organic solvent or mixture, thermodynamic from solid, batch 5; IPA; seed G/H; heat T 50; isolation T 25; 10.0 mL/g; SP 14; Exp 31
EXPERIMENTAL_READOUT: solubility

Look at this compound and give its reported solubility. CCCCCc1cc(OC(=O)c2ccc3ccccc3c2)c2c(c1)OC(C)(C)[C@@H]1CCC(C)=C[C@@H]21 [Form B]
7300 µg/mL

###

# TEST_METHOD_NOTES: Gravimetric solubility
# Format: physicochemical
# ASSAY_SETUP: organic solvent or mixture, thermodynamic from solid; solvent IPA; 50° C.; read-out: Gravimetric Solubility at 50° C.
EXPERIMENTAL_READOUT: solubility

// lookup solubility for CCCCCc1cc(OC(=O)c2ccc3ccccc3c2)c2c(c1)OC(C)(C)[C@@H]1CCC(C)=C[C@@H]21 [Form B]
~45 mg/mL

###

# TEST_METHOD_NOTES: D9 solubility in the liquors at isolation temperature
# Type: physicochemical
# ASSAY_SETUP: DMF/MeOH (1:9), 25 °C, organic solvent or mixture, thermodynamic from solid, batch 5, DMF/MeOH (1:9), seed G, heat T 60, isolation T 25, SP 9, 10.0 mL/g
EXPERIMENTAL_READOUT: solubility (mg/mL)
Numbers only; they are read as mg/mL.

Form field: reported solubility of CCCCCc1cc(OC(=O)c2ccc3ccccc3c2)c2c(c1)OC(C)(C)[C@@H]1CCC(C)=C[C@@H]21 [Form B]
5.1

###

# TEST_METHOD_NOTES: D9 solubility in the liquors at isolation temperature
# Type: physicochemical
# ASSAY_SETUP: liquors of the equilibrated crystallisation suspension, 25 °C, organic solvent or mixture, thermodynamic from solid, batch 2; IPA/water (95:5); seed G/H; heat T 55; isolation T 25; 10.0 mL/g; SP 13; Exp 43
# Experimental: At the end of each experiment, suspensions were equilibrated at the isolation temperature (25 or 5° C.) for at least 18 hours and the solids and liquors separated by centrifugation at the isolation temperature. The Exo/D9/D8 ratio (Exo-D9-THC-naphthoylester impurity/D9-THC-naphthoylester/D8-THC-naphthoylester) was determined in both the isolated solids and the liquors, from which the % Exo-depletion in the isolated solids was calculated. […]
EXPERIMENTAL_READOUT: solubility (µg/mL)
// return numeric value only (unit: µg/mL, not printed)

// returns reported solubility for input CCCCCc1cc(OC(=O)c2ccc3ccccc3c2)c2c(c1)OC(C)(C)[C@@H]1CCC(C)=C[C@@H]21 [Form B]
5600

###

# TEST_METHOD_NOTES: D9 solubility in the liquors at isolation temperature
# Assay type: physicochemical
# ASSAY_SETUP: crystallisation liquors over suspended solid, 25 °C, organic solvent or mixture, thermodynamic from solid, batch 5, EtOH, seed E/G, heat T 50, isolation T 25, SP 3, 9.6 mL/g
EXPERIMENTAL_READOUT: solubility (µg/mL)
The answer is to be given in µg/mL; state only the numeric part.

Quick one: solubility for CCCCCc1cc(OC(=O)c2ccc3ccccc3c2)c2c(c1)OC(C)(C)[C@@H]1CCC(C)=C[C@@H]21 [Form B] ?
6900

###

# TEST_METHOD_NOTES: Gravimetric solubility
# Assay type: physicochemical
# ASSAY_SETUP: 20 °C, organic solvent or mixture, thermodynamic from solid; solvent Acetone; RT; Batch 7; read-out: Gravimetric Solubility at RT
EXPERIMENTAL_READOUT: solubility (mg/mL)
Write the answer as a number in mg/mL, unit excluded.

Query (compound): CCCCCc1cc(OC(=O)c2ccc3ccccc3c2)c2c(c1)OC(C)(C)[C@@H]1CCC(C)=C[C@@H]21 [Acetone solvate of Group D] ; field requested: solubility
98

###

# TEST_METHOD_NOTES: D9 solubility in the liquors at isolation temperature
# Format: physicochemical
# ASSAY_SETUP: crystallisation liquors over suspended solid, 25 °C, organic solvent or mixture, thermodynamic from solid, batch 5; Toluene/MeOH (5:95); seed H; heat T 50; isolation T 25; 10.0 mL/g; SP 20; Exp 44
EXPERIMENTAL_READOUT: solubility (mg/mL)
I only need the number, in mg/mL, no unit after it.

Entry CCCCCc1cc(OC(=O)c2ccc3ccccc3c2)c2c(c1)OC(C)(C)[C@@H]1CCC(C)=C[C@@H]21 [Form G] : reported solubility = ?
3.4

###

# TEST_METHOD_NOTES: D9 solubility in the liquors at isolation temperature
# Type: physicochemical
# ASSAY_SETUP: DMSO/MeOH (1:9), 25 °C, organic solvent or mixture, thermodynamic from solid, batch 5, DMSO/MeOH (1:9), seed D/G, heat T 60, isolation T 25, SP 9, 10.0 mL/g
EXPERIMENTAL_READOUT: solubility (µg/mL)
Numbers only; they are read as µg/mL.

# input compound: CCCCCc1cc(OC(=O)c2ccc3ccccc3c2)c2c(c1)OC(C)(C)[C@@H]1CCC(C)=C[C@@H]21 [Form B] ; wanted: its solubility
4200

###

# TEST_METHOD_NOTES: D9 solubility in the liquors at isolation temperature
# Assay type: physicochemical
# ASSAY_SETUP: liquors of the equilibrated crystallisation suspension, 25 °C, organic solvent or mixture, thermodynamic from solid, Toluene/MeOH (2:8); isolation 25 °C; SP 17; 6.0 mL/g; read-out: D9 Solubility at Isolation T
# Protocol: At the end of each experiment, suspensions were equilibrated at the isolation temperature (25 or 5° C.) for at least 18 hours and the solids and liquors separated by centrifugation at the isolation temperature. The Exo/D9/D8 ratio (Exo-D9-THC-naphthoylester impurity/D9-THC-naphthoylester/D8-THC-naphthoylester) was determined in both the isolated solids and the liquors, from which the % Exo-depletion in the isolated solids was calculated. […]
EXPERIMENTAL_READOUT: solubility

Quick one: solubility for CCCCCc1cc(OC(=O)c2ccc3ccccc3c2)c2c(c1)OC(C)(C)[C@@H]1CCC(C)=C[C@@H]21 [Form H] ?
25.1 mg/mL

###

# TEST_METHOD_NOTES: D9 solubility in the liquors at isolation temperature
# Type: physicochemical
# ASSAY_SETUP: liquors of the equilibrated crystallisation suspension, 25 °C, organic solvent or mixture, thermodynamic from solid, batch 5; Cyclohexanone/IPA (1:9); seed G/H; heat T 45; isolation T 25; 2.5 mL/g; SP 15; Exp 39
EXPERIMENTAL_READOUT: solubility (mg/mL)
# output: bare number, implied unit mg/mL

Can you look up the measured solubility of CCCCCc1cc(OC(=O)c2ccc3ccccc3c2)c2c(c1)OC(C)(C)[C@@H]1CCC(C)=C[C@@H]21 [Form B] for me?
59.2
